Each entry below carries its recorded melting point.
quantityKind: melting point

                                  smilesstr            assayvalue
0  N[C@@H](Cc1cc(Cl)c(OCc2cccc3nc(-c4ccccc4)oc23)c(Cl)c1)C(=O)O  233 to 238 °C (dec.)
1  N[C@@H](Cc1cc(Cl)c(OCc2cccc3nc(-c4ccc(O)cc4)oc23)c(Cl)c1)C(=O)O  239 to 241 °C (dec.)
2  N[C@@H](Cc1cccc(Oc2cccc(-c3ccccc3)c2)c1)C(=O)O  203 to 206 °C (dec.)
3  N[C@@H](Cc1cccc(Oc2cccc(-c3cccnc3)c2)c1)C(=O)O  200 to 204 °C (dec.)
